Test system: A549 cells
test: Ca^2+ flux, Fluo-4 NW calcium assay, fluorometry
Type: cell-based, human
assayContext: peptide mixed with sodium oleate, Fluo-4 fluorescence
assayReadout: Ca^2+ flux, + oleate

- IALPELIATMFHTSG [Peptide 3, 15-amino-acid peptide of α-lactalbumin library]: No
- GLFQISNKLWAKSSQ [Peptide 6, 15-amino-acid peptide of α-lactalbumin library]: weaker Ca^2+ flux
- FHTSGYDTQAIVENN [Peptide 4, 15-amino-acid peptide of α-lactalbumin library]: No
- LLKDIDGYGGIALPE [Peptide 2, 15-amino-acid peptide of α-lactalbumin library]: No
- NIADISADKFLDDDI [Peptide 8, 15-amino-acid peptide of α-lactalbumin library]: No

Req: What Ca^2+ flux, + oleate value was documented for this sequence, KQFTKAELSQLLKDI [Peptide 1, 15-amino-acid peptide of α-lactalbumin library, numbered from the N-terminal] ?
Resp: No

Req: AAKKILDIKGIDYWL [Peptide 10, 15-amino-acid peptide of α-lactalbumin library] , same question.
Resp: weaker Ca^2+ flux

Data origin: paper PMC3531425
